# System: Zika virus (ZIKV)
# ASSAY_DETAILS: ZIKV high content screening assay (infection ratio by immunofluorescence in Huh7)
# RUN_PARAMETERS: Table S2; 9 point DRC from 50 µM; Huh7, ZIKV MOI 0.5, 72 h
OBSERVED_PROPERTY: EC50 (µM)
Numbers only; they are read as µM.

Here's what some known entries look like.
                                   molecule  observed_property  endpoint_value
0  CC(C)c1ccc2c(c1)c(SC(C)(C)C)c(CC(C)(C)C(=O)O)n2Cc1ccc(Cl)cc1               EC50              12
1  Cc1ccc(NC(=O)c2ccc(CN3CCN(C)CC3)cc2)cc1Nc1nccc(-c2cccnc2)n1               EC50            13.3
2         N=C(NCc1ccc(Cl)cc1)SCCCc1c[nH]cn1               EC50              14
3  CN1C2CCC1CC(OC(c1ccccc1)c1ccccc1)C2.CS(=O)(=O)O (stereo not shown)               EC50            21.3
4      Clc1ccc2c(c1)C(N1CCNCC1)=Nc1ccccc1O2               EC50            19.3

Input: Find the measured EC50 of Oc1cc2c(cc1O)[C@H]1c3ccccc3CN[C@@H]1CC2 and report it.
Output: 21.5

Input: Give recorded EC50. CN1CCN(CCCN2c3ccccc3Sc3ccc(Cl)cc32)CC1.O=C(O)/C=C\C(=O)O.O=C(O)/C=C\C(=O)O
Output: 10.3

Input: Indicate its recorded EC50; the molecule in question is Clc1ccccc1C(c1ccccc1)(c1ccccc1)n1ccnc1
Output: 14.3

Input: Report EC50 for COCCCC/C(=N\OCCN)c1ccc(C(F)(F)F)cc1.O=C(O)/C=C\C(=O)O
Output: 17

Input: Return EC50 for the following molecule: CC(CN1c2ccccc2Sc2ccccc21)N(C)C.Cl (stereo not shown)
Output: 19.7
